The origin of these recorded values is patent US20050239724A1.

Experiment: Skin biopsy tissue concentration, four 0.7 mm horizontal sections, acetonitrile extraction (Example 1)
Type: in vivo
Measurement Context: human, section 3, topical, 8 % sirolimus in the formulation, subject B, section 3, 7 hours after application, 8% sirolimus in capric acid:benzyl alcohol 50:50, read-out: Sirolimus concentration, skin section 3

Smiles Repr	Unit Symbol	concentration at 7 h
CO[C@H]1C[C@@H]2CC[C@@H](C)[C@@](O)(O2)C(=O)C(=O)N2CCCC[C@H]2C(=O)O[C@H]([C@H](C)C[C@@H]2CC[C@@H](O)[C@H](OC)C2)CC(=O)[C@H](C)/C=C(\C)[C@@H](O)[C@@H](OC)C(=O)[C@H](C)C[C@H](C)/C=C/C=C/C=C/1C	ng/g	173000
